B1: CPEB3 Ribozyme (parent)
chain: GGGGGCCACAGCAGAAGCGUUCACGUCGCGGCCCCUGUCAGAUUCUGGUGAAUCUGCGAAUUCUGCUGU

# Variants of: B1
# test_summary: self-cleavage, relative activity (ratio to wild type); higher = more cleavage; co-transcriptional
metric: self-cleavage
Numbers only.

Some variants with known self-cleavage results, for comparison:
1) GGGGGCCACAGCCGAAGCGUUCGCGUCGCGGCCCCUGUCAGAUUCUGGUGAAUCUGCGAAUUCUGCUGU [A13C A23G] ... 0.507
2) GGGGGCCACAGCAGAAGCGUUCACGUCGCGGCCCCUGUCAGAUUCAGGUGAAUCUGCGAAUUCAGCUGU [U46A U64A] ... 0.955
3) GGGGGCCACAGCAGAAGCGUUCACGUCGCGUCCCCUGUCAGAUUCUGGUUAAUCUGCGAAUUCUGCUGU [G31U G50U] ... 0.754
4) GGGGGCCACAGCGGAAGCGUUCACGUCGCGGCCCCUGUCAGAUUCUGGUGAAUCUGCGAAUUCUGGUGU [A13G C66G] ... 0.489
5) GGGGGCCACAGCAGGAGCGUUCACGUCGCGGCCCCUGUCAGAUUCUGGUGAAUCUGCGAAUCCUGCUGU [A15G U62C] ... 0.956

Can you give me self-cleavage for all of these, one by one?
1. GGGGACCACAGCAGAAGCGUUCACGUCGCGGCCCCUGUCAGAUUCUGGUGAAUCUGCGGAUUCUGCUGU [G5A A59G]
2. GGGGGCCACAGCAGAAGCGUUCACGUCGCGGCCCCUCUCAGAUUCUGAUGAAUCUGCGAAUUCUGCUGU [G37C G48A]
3. GUGGGCCACAGCAGAAGCGUUCAAGUCGCGGCCCCUGUCAGAUUCUGGUGAAUCUGCGAAUUCUGCUGU [G2U C24A]
4. GGGGGCCACAGCAGAAGCGUUGACGUCGCGGCCCCUGUCAGAUUCUGGUGACUCUGCGAAUUCUGCUGU [C22G A52C]

A)
0.753
0.182
0.0672
0.191

src = the RNAGym collection of RNA variant scans (doi:10.7554/elife.80360)
